The measured values listed here are drawn from patent US20230233569A1.

- target or test system: NRAS Q61R (Homo sapiens, UniProt P01111+P62937, Q61R)
- Sequence (P01111 whole entry Q61R): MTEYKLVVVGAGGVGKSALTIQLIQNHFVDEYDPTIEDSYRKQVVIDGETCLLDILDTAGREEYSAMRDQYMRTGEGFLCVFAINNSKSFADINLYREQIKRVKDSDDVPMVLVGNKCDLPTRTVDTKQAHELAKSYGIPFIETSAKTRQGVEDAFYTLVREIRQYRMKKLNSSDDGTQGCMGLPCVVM
- Sequence (P62937 whole entry): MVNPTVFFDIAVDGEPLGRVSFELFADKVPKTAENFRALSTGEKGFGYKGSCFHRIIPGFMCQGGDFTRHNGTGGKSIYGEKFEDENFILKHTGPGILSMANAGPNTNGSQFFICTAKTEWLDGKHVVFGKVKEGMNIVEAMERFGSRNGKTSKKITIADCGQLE
- experimental protocol: Ras-Raf disruption / FRET / MOA assay (BRAF RBD)
- Type: biochemical
property label: IC50

{"columns": ["compound", "IC50"],
 "data": [
  ["CCn1c(-c2cccnc2[C@H](C)OC)c2c3cc(ccc31)-c1cc(O)cc(c1)C[C@H](NC(=O)[C@H](C(C)C)N(C)C(=O)C13CC(CN1C(=O)[C@H]1CN1)C3)C(=O)N1CCC[C@H](N1)C(=O)OCC(C)(C)C2", "1000 to 10000 nM"],
  ["CCn1c(-c2cccnc2[C@H](C)OC)c2c3cc(ccc31)-c1cc(O)cc(c1)C[C@H](NC(=O)[C@H](C(C)C)N(C)C(=O)CN(C)C(=O)[C@@H]1CN1CC1COC1)C(=O)N1CCC[C@H](N1)C(=O)OCC(C)(C)C2 (stereo partly shown)", "100 to 1000 nM"],
  ["CCn1c(-c2cccnc2[C@H](C)OC)c2c3cc(ccc31)-c1cc(O)cc(c1)C[C@H](NC(=O)[C@H](C1CCCC1)N(C)C(=O)CN(C)C(=O)[C@@H]1N[C@@H]1C1(C#N)CC1)C(=O)N1CCC[C@H](N1)C(=O)OCC(C)(C)C2 (single isomer, unassigned)", "100 to 1000 nM"]
]}

// next entry
Challenge: Quick one: give measured IC50 for CCn1c(-c2cccnc2[C@H](C)OC)c2c3cc(ccc31)-c1cc(O)cc(c1)C[C@H](NC(=O)[C@H](C1CCCC1)N(C)C(=O)CN(C)C(=O)[C@H]1[C@@H](C3CC3)N1CCCOC)C(=O)N1CCC[C@H](N1)C(=O)OCC(C)(C)C2 (stereo partly shown)
Response given: 100 to 1000 nM

* * *

Assignment: determine reported IC50 for the given compounds.
- target or test system: KRAS G13D (Homo sapiens, UniProt P01116+P62937, G13D)
- Sequence (P01116 1-169 isoform P01116-2 G13D limits assumed, one chain of several): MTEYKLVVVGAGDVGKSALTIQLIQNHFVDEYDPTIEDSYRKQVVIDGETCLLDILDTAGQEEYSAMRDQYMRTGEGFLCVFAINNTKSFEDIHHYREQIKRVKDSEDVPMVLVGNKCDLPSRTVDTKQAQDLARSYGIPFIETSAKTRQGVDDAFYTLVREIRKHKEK
- experimental protocol: Disruption of BRAF RBD interaction with Ras (FRET / MOA assay, with Cyclophilin A)
- Assay type: biochemical
- test context: KRAS G13D; read-out: KRAS G13D FRET data IC50
- Source text: This protocol may also be executed substituting other Ras proteins or nucleotides. The purpose of this biochemical assay was to measure the ability of test compounds to facilitate ternary complex formation between a nucleotide-loaded K-Ras isoform and Cyclophilin A; the resulting ternary complex disrupts binding to a BRAF^RBD construct, inhibiting K-Ras signaling through a RAF effector. Data is reported as IC50 values. […]

Examples with their reported IC50 follow.
{"columns": ["compound", "IC50"],
 "data": [
  ["C=CS(=O)(=O)N1CC[C@H](C(=O)N(C)[C@H](C(=O)N[C@H]2Cc3cc(O)cc(c3)-c3ccc4c(c3)c(c(-c3cccnc3COC)n4CC)CC(C)(C)COC(=O)[C@@H]3CCCN(N3)C2=O)C(C)C)C1", "1000 to 10000 nM"],
  ["CCn1c(-c2cccnc2[C@H](C)OC)c2c3cc(ccc31)-c1cccc(c1)C[C@H](NC(=O)[C@@H](CN1CC[C@]3(CCN(C(=O)C#C[C@H]4COCCN4C)C3)C1=O)C(C)C)C(=O)N1CCCC(N1)C(=O)OCC(C)(C)C2 (stereo partly shown)", "> 10000 nM"],
  ["CCn1c(-c2cnccc2COC)c2c3cc(ccc31)-c1cc(O)cc(c1)C[C@H](NC(=O)[C@H](C(C)C)N(C)C(=O)[C@@H]1CN(C(C)=O)C[C@@H]1C(F)(F)F)C(=O)N1CCC[C@H](N1)C(=O)OCC(C)(C)C2", "100 to 1000 nM"]
]}

Challenge: Quick one: give measured IC50 for `CCn1c(-c2cccnc2[C@H](C)OC)c2c3cc(ccc31)-c1csc(n1)C[C@H](NC(=O)[C@H](C(C)C)N(C)C(=O)N1CC(n3nc(C)cc3C)C1)C(=O)N1CCC[C@H](N1)C(=O)OCC(C)(C)C2`
Response given: 1000 to 10000 nM

* * *

- target or test system: KRAS G12V (Homo sapiens, UniProt P01116+P62937, G12V)
- Sequence (P01116 1-169 isoform P01116-2 G12V limits assumed): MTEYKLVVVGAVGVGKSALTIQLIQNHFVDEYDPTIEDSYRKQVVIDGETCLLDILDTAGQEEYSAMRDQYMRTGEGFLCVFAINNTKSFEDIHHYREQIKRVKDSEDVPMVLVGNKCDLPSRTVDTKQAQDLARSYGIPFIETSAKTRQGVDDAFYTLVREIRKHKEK
- Sequence (P62937 whole entry): as the sequence (P62937 whole entry) above
- experimental protocol: Ras-Raf disruption / FRET / MOA assay (BRAF RBD)
- Assay type: biochemical
- test context: Ras-Raf disruption, with Cyclophilin A; read-out: KRAS G12V FRET data IC50
Assignment: determine reported IC50 for the given molecules.

{"columns": ["molecule", "target or test system", "IC50"],
 "data": [
  ["CCn1c(-c2cccnc2[C@H](C)OC)c2c3cc(ccc31)-c1cc(O)cc(c1)C[C@H](NC(=O)[C@H](C(C)C)N(C)C(=O)C1CC3(C1)CN(C(=O)[C@H]1CN1)C3)C(=O)N1CCC[C@H](N1)C(=O)OCC(C)(C)C2", "KRAS G12V (Homo sapiens, UniProt P01116+P62937, G12V)", "100 to 1000 nM"]
]}

// next entry
Challenge: Quick one: give measured IC50 for CCn1c(-c2cccnc2[C@H](C)OC)c2c3cc(ccc31)-c1cc(O)cc(c1)C[C@H](NC(=O)[C@H](C(C)C)N(C)C(=O)[C@H]1CCN(C(=O)[C@H]3CN3)C1)C(=O)N1CCC[C@H](N1)C(=O)OCC(C)(C)C2 (single isomer, unassigned) [Example 43B]
Response given: 1000 to 10000 nM

* * *

- System: Capan-1 (K-Ras G12V)
- experimental protocol: CellTiter-Glo cell viability assay, 5-day treatment
- Format: cell-based
- test context: Homo sapiens, CAPAN-1, 120 h, 5-day treatment; read-out: Capan-1 Cell Viability assay data (K-Ras G12V, IC50)
property label: IC50

{"columns": ["molecule", "reading"],
 "data": [
  ["CCn1c(-c2cccnc2[C@H](C)OC)c2c3cc(ccc31)-c1cc(O)cc(c1)C[C@H](NC(=O)[C@H](C(C)C)N(C)C(=O)C1(F)CC1)C(=O)N1CCC[C@H](N1)C(=O)OCC(C)(C)C2", "10 to 100 nM"]
]}

I have 4 molecules here; please give me IC50 for each one.
1. CCn1c(-c2cccnc2[C@H](C)OC)c2c3cc(ccc31)-c1cc(O)cc(c1)C[C@H](NC(=O)[C@H](C(C)C)N(C)C(=O)[C@H]1CCN(C(=O)OC)C1)C(=O)N1CCC[C@H](N1)C(=O)OCC(C)(C)C2 (atropisomer, axis not shown)
2. CCn1c(-c2cccnc2[C@H](C)OC)c2c3cc(ccc31)-c1csc(n1)C[C@H](NC(=O)[C@H](C(C)C)N(C)C(=O)N1CCC[C@@H](N(C)C)C1)C(=O)N1CCC[C@H](N1)C(=O)OCC(C)(C)C2 (atropisomer, axis not shown)
3. CCn1c(-c2cccnc2[C@H](C)OC)c2c3cc(ccc31)-c1cc(O)cc(c1)C[C@H](NC(=O)[C@H](C(C)C)N(C)C(=O)C1CCN3CCOCC13)C(=O)N1CCC[C@H](N1)C(=O)OCC(C)(C)C2 (some centres unmarked)
4. CCn1c(-c2cnccc2COC)c2c3cc(ccc31)-c1cc(O)cc(c1)C[C@H](NC(=O)[C@H](C(C)C)N(C)C(=O)[C@H]1CCCO1)C(=O)N1CCC[C@H](N1)C(=O)OCC(C)(C)C2

Response given:
10 to 100 nM
10 to 100 nM
100 to 1000 nM
100 to 1000 nM

I have 4 molecules here; please give me IC50 for each one.
1. CCn1c(-c2cccnc2[C@H](C)OC)c2c3cc(ccc31)-c1csc(n1)C[C@H](NC(=O)[C@H](C(C)C)N(C)C(=O)N1CC(C(C)(C)OC)C1)C(=O)N1CCC[C@H](N1)C(=O)OCC(C)(C)C2 (atropisomer, axis not shown)
2. CCn1c(-c2cccnc2[C@H](C)OC)c2c3cc(ccc31)-c1cc(O)cc(c1)C[C@H](NC(=O)[C@H](C(C)C)N(C)C(=O)[C@H]1C[C@H](O)C1)C(=O)N1CCC[C@H](N1)C(=O)OCC(C)(C)C2
3. CCn1c(-c2cnccc2COC)c2c3cc(ccc31)-c1cc(O)cc(c1)C[C@H](NC(=O)[C@H](C(C)C)N(C)C(=O)[C@@H]1CCCO1)C(=O)N1CCC[C@H](N1)C(=O)OCC(C)(C)C2
4. CCn1c(-c2cccnc2[C@H](C)OC)c2c3cc(ccc31)-c1cc(O)cc(c1)C[C@H](NS(=O)(=O)c1cnc[nH]1)C(=O)N1CCC[C@H](N1)C(=O)OCC(C)(C)C2 (racemic)

Response given:
10 to 100 nM
100 to 1000 nM
100 to 1000 nM
> 10000 nM

I have 2 molecules here; please give me IC50 for each one.
1. CCn1c(-c2cccnc2[C@H](C)OC)c2c3cc(ccc31)-c1cc(O)cc(c1)C[C@H](NC(=O)[C@H](C(C)C)N(C)C(=O)Cc1cc[nH]n1)C(=O)N1CCC[C@H](N1)C(=O)OCC(C)(C)C2
2. CCn1c(-c2cccnc2[C@H](C)OC)c2c3cc(ccc31)-c1csc(n1)C[C@H](NC(=O)[C@H](C(C)C)N(C)C(=O)N1CC(NC)C1)C(=O)N1CCC[C@H](N1)C(=O)OCC(C)(C)C2 (atropisomer, axis not shown)

Response given:
100 to 1000 nM
100 to 1000 nM

I have 5 molecules here; please give me IC50 for each one.
1. CCn1c(-c2cccnc2[C@H](C)OC)c2c3cc(ccc31)-c1csc(n1)C[C@H](NC(=O)[C@H](C(C)C)N(C)C(=O)N1CC([C@H](C)NC)C1)C(=O)N1CCC[C@H](N1)C(=O)OCC(C)(C)C2
2. CCn1c(-c2cccnc2[C@@H]2CCCO2)c2c3cc(ccc31)-c1csc(n1)C[C@H](NC(=O)[C@H](C(C)C)N(C)C(=O)N1CC(N(C)C)C1)C(=O)N1CCC[C@H](N1)C(=O)OCC(C)(C)C2 (atropisomer, axis not shown)
3. CCN(C(=O)N(C)[C@H](C(=O)N[C@H]1Cc2nc(cs2)-c2ccc3c(c2)c(c(-c2cccnc2[C@H](C)OC)n3CC)CC(C)(C)COC(=O)[C@@H]2CCCN(N2)C1=O)C(C)C)C(C)C
4. CCn1c(-c2cccnc2[C@H](C)OC)c2c3cc(ccc31)-c1cc(O)cc(c1)C[C@H](NC(=O)[C@H](C(C)C)N(C)C(=O)[C@H]1CCC[C@H]1N)C(=O)N1CCC[C@H](N1)C(=O)OCC(C)(C)C2 (atropisomer, axis not shown)
5. CCn1c(-c2cccnc2[C@H](C)OC)c2c3cc(ccc31)-c1csc(n1)C[C@H](NC(=O)[C@H](C(C)C)N(C)C(=O)N1[C@@H](C)CN(C)C[C@@H]1C)C(=O)N1CCC[C@H](N1)C(=O)OCC(C)(C)C2

Response given:
1: 100 to 1000 nM; 2: 1000 to 10000 nM; 3: 100 to 1000 nM; 4: 100 to 1000 nM; 5: 100 to 1000 nM

Challenge: Quick one: give measured IC50 for `CCn1c(-c2cccnc2[C@H](C)OC)c2c3cc(ccc31)-c1csc(n1)C[C@H](NC(=O)[C@H](C(C)C)N(C)C(=O)N1CCCC[C@@H](N(C)C)C1)C(=O)N1CCC[C@H](N1)C(=O)OCC(C)(C)C2`
Response given: 100 to 1000 nM
